Tested on: L1210 leukemia ip in BDF1 mice, survival T/C
EXPERIMENTAL_PROTOCOL: NCI In Vivo Anticancer Drug Screen. Data for tumor model L1210 Leukemia (intraperitoneal) in B6D2F1 (BDF1) mice
APPLIED_CONDITIONS: endpoint: mean survival time; dose: 100.0 mg/kg/injection; schedule: Q01DX009 (ip); vehicle: water; higher = longer survival
Toxic doses and inconclusive results are not listed.
READOUT_TYPE: T/C

Known value: L1210 leukemia ip in BDF1 mice, survival T/C T/C of the compound Cc1cc(=O)c2cc(N)ccc2[nH]1 equals 98 % of control

Known value: L1210 leukemia ip in BDF1 mice, survival T/C T/C of the compound COC(=O)Cc1c[nH]c(=O)[nH]c1=O equals 102 % of control

Known value: L1210 leukemia ip in BDF1 mice, survival T/C T/C of the compound C/C=C/C(OCC)OCC equals 106 % of control

Known value: L1210 leukemia ip in BDF1 mice, survival T/C T/C of the compound CN(Cc1ccc2nc(N)[nH]c(=O)c2c1)c1ccc(C(=O)NC(CCC(=O)O)C(=O)O)cc1 (configuration not stated) equals 113 % of control

Known value: L1210 leukemia ip in BDF1 mice, survival T/C T/C of the compound CC(=O)NCc1ccc(N)cc1 equals 120 % of control

Known value: L1210 leukemia ip in BDF1 mice, survival T/C T/C of the compound CCN(CC)CCCC(C)NC(=O)c1cccc2c(N)cccc12 (configuration not stated) equals 101 % of control

Known value: L1210 leukemia ip in BDF1 mice, survival T/C T/C of the compound C/C(C/C(C)=N/O)=N/O.C/C(C/C(C)=N/O)=N\O.[Cl][Rh][Cl] equals 97 % of control
